- Target: h-GABAA α2β2γ1 (Homo sapiens, UniProt P47869+Q8N1C3)
- Sequence (P47869 29-451): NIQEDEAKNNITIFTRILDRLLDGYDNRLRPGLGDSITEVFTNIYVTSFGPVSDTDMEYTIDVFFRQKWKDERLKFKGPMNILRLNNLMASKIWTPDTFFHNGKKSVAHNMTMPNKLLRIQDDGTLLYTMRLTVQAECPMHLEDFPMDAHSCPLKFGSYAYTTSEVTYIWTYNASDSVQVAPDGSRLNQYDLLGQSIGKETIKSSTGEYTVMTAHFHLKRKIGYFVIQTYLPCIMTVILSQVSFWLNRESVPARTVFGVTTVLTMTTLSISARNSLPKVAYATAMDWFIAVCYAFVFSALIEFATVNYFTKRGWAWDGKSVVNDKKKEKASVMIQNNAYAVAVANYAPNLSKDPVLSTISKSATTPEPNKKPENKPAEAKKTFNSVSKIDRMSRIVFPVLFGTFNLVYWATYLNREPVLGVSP
- Sequence (P47870 25-512 partner limits assumed): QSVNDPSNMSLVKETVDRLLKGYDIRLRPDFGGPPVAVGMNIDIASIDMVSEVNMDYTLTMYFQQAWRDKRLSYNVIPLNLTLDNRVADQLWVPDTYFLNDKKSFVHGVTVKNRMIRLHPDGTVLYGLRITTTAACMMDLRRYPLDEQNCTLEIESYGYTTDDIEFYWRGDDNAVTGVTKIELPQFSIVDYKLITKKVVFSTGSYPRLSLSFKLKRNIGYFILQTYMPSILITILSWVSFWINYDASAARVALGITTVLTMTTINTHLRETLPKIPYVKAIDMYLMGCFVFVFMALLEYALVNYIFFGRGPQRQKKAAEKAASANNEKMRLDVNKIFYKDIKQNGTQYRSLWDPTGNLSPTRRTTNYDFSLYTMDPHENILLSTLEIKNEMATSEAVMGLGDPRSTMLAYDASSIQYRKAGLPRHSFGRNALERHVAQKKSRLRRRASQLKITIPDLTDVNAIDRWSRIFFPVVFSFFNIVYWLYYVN
- Sequence (Q8N1C3 36-465): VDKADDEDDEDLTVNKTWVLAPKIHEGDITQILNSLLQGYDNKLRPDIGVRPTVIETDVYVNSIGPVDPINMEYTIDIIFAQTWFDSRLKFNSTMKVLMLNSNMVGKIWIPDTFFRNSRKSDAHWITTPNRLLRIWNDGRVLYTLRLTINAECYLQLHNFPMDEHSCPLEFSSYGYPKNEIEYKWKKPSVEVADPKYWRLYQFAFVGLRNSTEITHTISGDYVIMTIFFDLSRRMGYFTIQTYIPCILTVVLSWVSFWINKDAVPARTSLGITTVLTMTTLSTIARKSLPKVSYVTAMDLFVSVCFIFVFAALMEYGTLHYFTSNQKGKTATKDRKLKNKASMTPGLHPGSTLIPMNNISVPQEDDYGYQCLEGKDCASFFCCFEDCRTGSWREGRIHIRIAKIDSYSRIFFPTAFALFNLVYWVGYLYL
- Protocol details: Radioligand binding assay, [3H]RO7239181 competition, HEK293F membranes
Observation type: Ki (µM)
Note: unit µM is implicit; provide only the numeric part.

Prompt line: Any idea what its Ki is? The compound is Fc1cccc(F)c1C1=NCc2nnc(-c3cccnn3)n2-c2ccc(Br)c(Br)c21
Response line: 0.0055

Prompt line: // same read-out, input: Clc1ccc2c(c1)C(c1ccccc1)=NCc1nncn1-2 [Estazolam, reference compound]
Response line: 3.18

Prompt line: Entry to check: Fc1cccc(F)c1C1=NCc2nncn2-c2ccc(C(F)(F)F)c(Cl)c21
Response line: 0.0414
